target: rat brain N-type calcium channel subunits (α1B+α2δ+β1b cDNA subunits) (Rattus norvegicus); construct: expressed in transfected cells; host or cells: HEK 293; experiment: N-type calcium channel block, whole cell patch clamp in transfected HEK 293 cells; type: cell-based; conditions: pulse frequency 0.2 Hz (frequency dependent block), holding potential −80 mV to +10 mV, read-out: IC50 @ 0.2 Hz
Sequence (Q02294 whole entry): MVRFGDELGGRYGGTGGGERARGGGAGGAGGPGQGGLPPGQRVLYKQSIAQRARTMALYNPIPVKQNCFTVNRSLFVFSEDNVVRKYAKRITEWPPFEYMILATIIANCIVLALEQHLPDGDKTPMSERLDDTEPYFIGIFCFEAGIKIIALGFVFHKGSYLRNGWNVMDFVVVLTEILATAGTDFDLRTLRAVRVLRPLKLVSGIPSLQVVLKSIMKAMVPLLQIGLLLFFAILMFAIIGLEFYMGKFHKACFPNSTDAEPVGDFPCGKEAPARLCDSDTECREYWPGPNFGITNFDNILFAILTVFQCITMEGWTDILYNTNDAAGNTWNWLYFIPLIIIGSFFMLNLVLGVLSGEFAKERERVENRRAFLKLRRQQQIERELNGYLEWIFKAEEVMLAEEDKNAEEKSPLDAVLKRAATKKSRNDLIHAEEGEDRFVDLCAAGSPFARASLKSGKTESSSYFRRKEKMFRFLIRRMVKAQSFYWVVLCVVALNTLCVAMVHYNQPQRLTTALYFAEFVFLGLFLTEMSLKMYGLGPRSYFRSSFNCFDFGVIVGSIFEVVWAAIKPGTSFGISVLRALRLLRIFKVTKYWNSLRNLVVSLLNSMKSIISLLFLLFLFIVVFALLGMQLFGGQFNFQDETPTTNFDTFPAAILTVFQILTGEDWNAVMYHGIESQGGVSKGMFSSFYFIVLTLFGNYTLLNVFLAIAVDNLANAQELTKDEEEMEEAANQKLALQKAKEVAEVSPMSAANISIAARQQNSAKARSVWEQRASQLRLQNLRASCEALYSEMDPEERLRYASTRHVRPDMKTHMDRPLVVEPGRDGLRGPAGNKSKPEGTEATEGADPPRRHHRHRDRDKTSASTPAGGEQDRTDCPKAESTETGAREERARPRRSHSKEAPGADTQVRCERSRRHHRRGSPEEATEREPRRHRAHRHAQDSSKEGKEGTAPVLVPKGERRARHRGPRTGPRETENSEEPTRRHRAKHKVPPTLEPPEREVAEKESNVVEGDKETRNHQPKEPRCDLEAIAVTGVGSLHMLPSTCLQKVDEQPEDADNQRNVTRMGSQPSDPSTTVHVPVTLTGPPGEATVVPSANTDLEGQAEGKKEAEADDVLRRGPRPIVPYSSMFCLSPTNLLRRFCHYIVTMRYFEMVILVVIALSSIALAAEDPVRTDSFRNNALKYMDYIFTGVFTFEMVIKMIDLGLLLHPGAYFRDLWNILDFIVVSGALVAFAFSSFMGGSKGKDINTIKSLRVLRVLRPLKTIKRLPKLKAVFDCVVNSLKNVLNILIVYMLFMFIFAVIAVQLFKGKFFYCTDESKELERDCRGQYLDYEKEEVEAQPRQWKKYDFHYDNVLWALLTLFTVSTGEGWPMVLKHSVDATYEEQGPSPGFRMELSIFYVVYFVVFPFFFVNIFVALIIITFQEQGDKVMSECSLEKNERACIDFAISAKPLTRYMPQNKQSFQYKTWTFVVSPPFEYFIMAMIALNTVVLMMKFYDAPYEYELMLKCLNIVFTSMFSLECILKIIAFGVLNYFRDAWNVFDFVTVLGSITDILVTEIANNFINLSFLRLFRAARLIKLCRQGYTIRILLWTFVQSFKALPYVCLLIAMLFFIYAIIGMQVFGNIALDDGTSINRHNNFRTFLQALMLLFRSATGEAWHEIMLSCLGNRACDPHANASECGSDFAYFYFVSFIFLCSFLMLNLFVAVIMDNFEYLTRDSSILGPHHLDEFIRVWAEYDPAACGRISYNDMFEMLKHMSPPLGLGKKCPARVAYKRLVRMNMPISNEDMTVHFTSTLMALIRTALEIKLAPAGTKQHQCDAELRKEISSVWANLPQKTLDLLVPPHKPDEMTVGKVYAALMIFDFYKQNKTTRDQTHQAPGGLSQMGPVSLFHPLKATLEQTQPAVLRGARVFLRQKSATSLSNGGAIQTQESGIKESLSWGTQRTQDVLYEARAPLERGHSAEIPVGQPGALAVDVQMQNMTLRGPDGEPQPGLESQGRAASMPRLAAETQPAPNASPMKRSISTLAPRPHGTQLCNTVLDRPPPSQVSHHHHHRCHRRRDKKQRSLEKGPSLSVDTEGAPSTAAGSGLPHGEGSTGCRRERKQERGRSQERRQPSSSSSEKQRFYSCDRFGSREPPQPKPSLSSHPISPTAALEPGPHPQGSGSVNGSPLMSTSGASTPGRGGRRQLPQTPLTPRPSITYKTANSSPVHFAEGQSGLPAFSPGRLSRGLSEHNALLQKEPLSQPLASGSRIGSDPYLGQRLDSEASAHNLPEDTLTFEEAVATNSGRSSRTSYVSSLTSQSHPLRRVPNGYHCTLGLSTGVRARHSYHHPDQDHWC
Task for the reader: assign each of the following compounds its reported pIC50.
The meaning of pIC50 here: minus log10 of the concentration in molar units.

What the record says about `O=C(c1cc(-c2ccccc2F)no1)N1CCN(C(c2ccccc2)c2ccccc2)CC1` : pIC50 is 6.43

Record summary for Cc1ccc(C(c2ccccc2)N2CCN(Cc3cc(-c4ccccc4)no3)CC2)c(C)c1 (stereo not drawn) : reported pIC50 = 6.40

Record O=C(c1cc(-c2ccccc2F)no1)N1CCN(C(c2ccccc2)c2ccc(Cl)cc2Cl)CC1 (stereo not drawn) . Reported pIC50: 5.47

Short answer for Fc1ccccc1-c1cc(CN2CCN(C(c3ccccc3)c3ccc(Cl)cc3Cl)CC2)on1 (stereo not drawn) : pIC50 was 5.71

The value of pIC50 measured for the compound `O=C(CC(c1ccccc1)c1ccccc1)N1CCN(Cc2cc(-c3ccccc3F)no2)CC1` turned out to be 6.48

So for `COc1ccccc1-c1cc(CN2CCN(C(c3ccccc3)c3ccccc3)CC2)on1` , the logged pIC50 turned out to be 6.47

Cc1ccc(C(c2ccccc2)N2CCN(C(=O)c3cc(-c4ccccc4F)no3)CC2)c(C)c1 (stereo not drawn) yielded pIC50 of 5.95

Sample `O=C(c1cc(-c2ccccc2)no1)N1CCN(C(c2ccccc2)c2ccccc2)CC1` ; pIC50 observed: 6.54

Reported pIC50 for Clc1ccc(C(c2ccccc2)N2CCN(Cc3cc(-c4ccccc4)no3)CC2)c(Cl)c1 (stereo not drawn) was 5.65

Please fill in: pIC50 reported for `c1ccc(-c2cc(CN3CCN(C(c4ccccc4)c4ccccc4)CC3)on2)cc1` = 6.17

Note to self: pIC50 recorded for `O=C(CC(c1ccccc1)c1ccccc1)N1CCN(Cc2cc(-c3ccccc3)no2)CC1` was 5.92

Query Cc1ccc(C(c2ccccc2)N2CCN(Cc3cc(-c4ccccc4F)no3)CC2)c(C)c1 (stereo not drawn) yields pIC50 of 6.24

# compound `COc1ccccc1-c1cc(C(=O)N2CCN(C(c3ccccc3)c3ccccc3)CC2)on1` ; its pIC50 = 5.83

Lab book: pIC50 of `Fc1ccccc1-c1cc(CN2CCN(C(c3ccccc3)c3ccccc3)CC2)on1` noted as 5.96

The recorded pIC50 for entry `COc1ccccc1-c1cc(CN2CCN(C(=O)CC(c3ccccc3)c3ccccc3)CC2)on1` equals 6.54

###

Target: human α1G T-type channels (Homo sapiens, UniProt O43497)
Construct: expressed in transfected cells; host or cells: HEK cell lines
Sequence (O43497 whole entry): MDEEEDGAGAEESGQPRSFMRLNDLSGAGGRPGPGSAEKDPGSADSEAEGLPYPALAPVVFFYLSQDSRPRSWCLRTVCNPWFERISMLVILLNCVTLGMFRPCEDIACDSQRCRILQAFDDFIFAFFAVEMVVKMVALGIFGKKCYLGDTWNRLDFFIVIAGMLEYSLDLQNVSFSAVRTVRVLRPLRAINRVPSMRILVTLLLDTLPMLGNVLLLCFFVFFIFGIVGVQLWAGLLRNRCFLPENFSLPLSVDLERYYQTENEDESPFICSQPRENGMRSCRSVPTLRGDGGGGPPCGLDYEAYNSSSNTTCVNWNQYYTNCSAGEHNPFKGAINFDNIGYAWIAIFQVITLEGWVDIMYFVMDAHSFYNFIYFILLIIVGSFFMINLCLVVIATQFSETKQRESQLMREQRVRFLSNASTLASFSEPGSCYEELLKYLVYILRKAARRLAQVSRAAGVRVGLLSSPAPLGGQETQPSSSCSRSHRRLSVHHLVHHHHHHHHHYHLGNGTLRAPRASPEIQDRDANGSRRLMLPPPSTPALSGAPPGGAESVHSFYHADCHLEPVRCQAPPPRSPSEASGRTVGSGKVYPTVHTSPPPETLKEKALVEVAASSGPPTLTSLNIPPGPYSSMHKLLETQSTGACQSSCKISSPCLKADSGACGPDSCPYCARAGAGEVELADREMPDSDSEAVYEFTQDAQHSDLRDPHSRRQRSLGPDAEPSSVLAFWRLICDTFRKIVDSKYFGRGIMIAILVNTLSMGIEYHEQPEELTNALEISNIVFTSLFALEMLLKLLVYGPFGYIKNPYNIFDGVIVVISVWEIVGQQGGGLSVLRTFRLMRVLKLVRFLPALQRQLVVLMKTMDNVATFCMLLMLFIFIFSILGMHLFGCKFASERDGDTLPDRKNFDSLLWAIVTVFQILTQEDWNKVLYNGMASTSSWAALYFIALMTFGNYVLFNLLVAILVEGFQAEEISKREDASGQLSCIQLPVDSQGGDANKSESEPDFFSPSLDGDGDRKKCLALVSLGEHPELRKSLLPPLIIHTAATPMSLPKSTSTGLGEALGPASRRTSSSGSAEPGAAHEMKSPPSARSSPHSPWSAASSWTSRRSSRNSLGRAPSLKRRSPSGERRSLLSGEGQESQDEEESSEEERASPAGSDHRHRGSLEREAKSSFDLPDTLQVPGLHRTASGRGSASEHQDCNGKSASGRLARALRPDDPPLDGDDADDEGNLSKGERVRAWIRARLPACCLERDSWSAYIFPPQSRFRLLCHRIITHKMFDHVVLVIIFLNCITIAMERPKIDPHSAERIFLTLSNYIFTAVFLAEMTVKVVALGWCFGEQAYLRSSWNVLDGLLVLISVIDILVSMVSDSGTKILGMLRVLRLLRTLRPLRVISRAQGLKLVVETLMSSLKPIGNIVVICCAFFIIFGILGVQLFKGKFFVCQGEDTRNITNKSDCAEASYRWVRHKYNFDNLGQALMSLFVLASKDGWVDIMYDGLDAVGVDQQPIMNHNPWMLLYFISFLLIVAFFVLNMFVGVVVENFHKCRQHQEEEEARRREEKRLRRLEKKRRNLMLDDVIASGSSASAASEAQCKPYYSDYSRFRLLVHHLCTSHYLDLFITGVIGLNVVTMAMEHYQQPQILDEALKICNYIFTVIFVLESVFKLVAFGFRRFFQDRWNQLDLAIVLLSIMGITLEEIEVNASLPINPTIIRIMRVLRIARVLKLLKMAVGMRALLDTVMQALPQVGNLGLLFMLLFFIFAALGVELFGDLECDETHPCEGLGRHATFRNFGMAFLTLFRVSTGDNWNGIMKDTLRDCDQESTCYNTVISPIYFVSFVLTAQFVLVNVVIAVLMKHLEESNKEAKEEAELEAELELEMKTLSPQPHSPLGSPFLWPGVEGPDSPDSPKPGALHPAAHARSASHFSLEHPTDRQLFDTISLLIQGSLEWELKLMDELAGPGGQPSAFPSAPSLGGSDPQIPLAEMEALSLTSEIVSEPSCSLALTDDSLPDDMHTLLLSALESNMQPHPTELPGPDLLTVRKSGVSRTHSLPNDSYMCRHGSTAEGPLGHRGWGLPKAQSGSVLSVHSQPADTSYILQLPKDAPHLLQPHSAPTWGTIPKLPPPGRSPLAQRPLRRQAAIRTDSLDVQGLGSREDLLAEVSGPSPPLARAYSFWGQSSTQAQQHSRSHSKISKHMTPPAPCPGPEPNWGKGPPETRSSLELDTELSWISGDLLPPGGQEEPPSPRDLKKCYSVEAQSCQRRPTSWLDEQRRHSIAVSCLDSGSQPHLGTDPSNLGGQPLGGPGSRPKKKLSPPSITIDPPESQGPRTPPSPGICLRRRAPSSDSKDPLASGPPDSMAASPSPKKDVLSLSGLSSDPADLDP
Experiment: T-type calcium channel block, whole-cell patch clamp in HEK cell lines
Assay type: cell-based
Conditions: inactivation protocol (voltage-dependent block), HEK cells, read-out: IC50 @ −80 mV
Protocol: Standard patch-clamp techniques were employed to identify blockers of T-type currents. Briefly, previously described HEK cell lines stably expressing human α1G T-type channels were used for all the recordings (passage #: 4-20, 37° C., 5% CO2). To obtain T-type currents, plastic dishes containing semi-confluent cells were positioned on the stage of a ZEISS AXIOVERT S100 microscope after replacing the culture medium with external solution (see below). […]
Task for the reader: assign each of the following molecules its reported IC50.
Quick note: give the figure in µM, leave out the unit.

Lab note: Cc1ccc(C(c2ccccc2)N2CCN(C(=O)c3cc(-c4ccccc4F)no3)CC2)c(C)c1 (stereo not shown) [Compound 11] gave IC50 of 2.77

Field IC50 (entry Cc1ccc(C(c2ccccc2)N2CCN(Cc3cc(-c4ccccc4F)no3)CC2)c(C)c1 (stereo not shown) [Compound 12] ) reads 0.83

Lab note: measured IC50 of Clc1ccc(C(c2ccccc2)N2CCN(Cc3cc(-c4ccccc4)no3)CC2)c(Cl)c1 (stereo not shown) [Compound 14] was 5.53

IC50 recorded for this molecule, O=C(CC(c1ccccc1)c1ccccc1)N1CCN(Cc2cc(-c3ccccc3)no2)CC1 [Compound 9] , is 1.7

Item: Cc1ccc(C(c2ccccc2)N2CCN(Cc3cc(-c4ccccc4)no3)CC2)c(C)c1 (stereo not shown) [Compound 10] | IC50: 2.18

For reference, reported IC50 for c1ccc(-c2cc(CN3CCN(C(c4ccccc4)c4ccccc4)CC3)on2)cc1 [Compound 2] stands at 0.35

Lab note: O=C(c1cc(-c2ccccc2)no1)N1CCN(C(c2ccccc2)c2ccccc2)CC1 [Compound 1] gave IC50 of 1.9

###

target: human α1G T-type channels (Homo sapiens); construct: expressed in transfected cells; host or cells: HEK cell lines; assay: T-type calcium channel block, whole-cell patch clamp in HEK cell lines; type: cell-based; conditions: non-inactivating protocol, pre-pulse −100 mV (resting block), HEK cells, read-out: IC50 @ −100 mV
pIC50: −log10 of the molar value.
Task for the reader: assign each of the following molecules its reported pIC50.

// recorded pIC50 for `O=C(CC(c1ccccc1)c1ccccc1)N1CCN(Cc2cc(-c3ccccc3)no2)CC1` : < 5.00

Recorded pIC50 (molecule Clc1ccc(C(c2ccccc2)N2CCN(Cc3cc(-c4ccccc4)no3)CC2)c(Cl)c1 (stereo not drawn) ): < 4.78

Value of measured pIC50 for the entry `O=C(c1cc(-c2ccccc2)no1)N1CCN(C(c2ccccc2)c2ccccc2)CC1` : < 5.00
